Quantity Name: melting point
Mention the unit after the number when you answer.

Request: Query: melting point; subject: CN(Cc1ncc[nH]1)C1CCN(S(=O)(=O)c2ccc(Nc3nccc(-c4ccc(F)cc4)n3)cc2)CC1
Response: 140 °C

Request: Query: melting point; subject: NCCN(C1CCN(Cc2ccccc2)CC1)S(=O)(=O)c1ccc(Nc2nccc(-c3ccc(F)cc3)n2)cc1
Response: 194.4 °C

Request: Query: melting point; subject: CN(CCS(C)(=O)=O)C1CCN(S(=O)(=O)c2ccc(Nc3nccc(-c4ccc(F)cc4)n3)cc2)CC1
Response: 166.5 °C

Request: Query: melting point; subject: CN(C1CCNCC1)S(=O)(=O)c1ccc(Nc2nccc(-c3ccc(F)cc3)n2)cc1
Response: 115.6 °C

Request: Query: melting point; subject: CNC1CCN(S(=O)(=O)c2ccc(Nc3nccc(-c4ccc(F)cc4)n3)cc2)CC1
Response: 202.9 °C

The origin of these recorded values is patent US20100069417A1.
